Hello, the source for this data is patent US7732485B2, in case you need it.

test system: L1210 cell line; experiment: Growth inhibition assay (modified MTT); assay type: cell-based, murine; conditions: Table 1, first series of assays, five-day MTT
Flag rule - IC50 less than 40 nM flags 1 (yes); the remaining entries get 0 (no).

compound | class_name
c1ccc([PH]([Au][c]2cccc[c]2[Au][PH](c2ccccc2)(c2ccccc2)c2ccccc2)(c2ccccc2)c2ccccc2)cc1 [Compound C] | 0 (no)
c1ccc([PH]([Au][CH2]c2cc[c]([Au][PH](c3ccccc3)(c3ccccc3)c3ccccc3)cc2)(c2ccccc2)c2ccccc2)cc1 [D] | 0 (no)
N.N.[Cl][Pt][Cl] [Cisplatin, cisplatin, reference compound] | 0 (no)
c1ccc([PH]([Au][c]2cc[c]([Au][PH](c3ccccc3)(c3ccccc3)c3ccccc3)cc2)(c2ccccc2)c2ccccc2)cc1 [A] | 1 (yes)
c1ccc([PH]([Au][CH2]c2ccc[c]([Au][PH](c3ccccc3)(c3ccccc3)c3ccccc3)c2)(c2ccccc2)c2ccccc2)cc1 [E] | 1 (yes)
[Au][c]1ccc[c]([Au])c1.c1ccc(P(c2ccccc2)c2ccccc2)cc1.c1ccc(P(c2ccccc2)c2ccccc2)cc1 [B] | 1 (yes)
c1ccc([PH]([Au][CH2]c2cccc[c]2[Au][PH](c2ccccc2)(c2ccccc2)c2ccccc2)(c2ccccc2)c2ccccc2)cc1 [F] | 1 (yes)

---

system: A2780-S cell line; experiment: Growth inhibition assay (modified MTT); format: cell-based, human; conditions: Table 2, further series of assays, five-day MTT
Flag rule - IC50 less than 20 nM flags 1; the remaining entries get -1.

molecule | class_name
c1ccc([PH]([Au][c]2cccc[c]2[Au][PH](c2ccccc2)(c2ccccc2)c2ccccc2)(c2ccccc2)c2ccccc2)cc1 | 1
N.N.O=C([O-])C1(C(=O)[O-])CCC1.[Pt+2] [Carboplatin, carboplatin, reference compound] | -1
c1ccc([PH]([Au][CH2]c2cccc[c]2[Au][PH](c2ccccc2)(c2ccccc2)c2ccccc2)(c2ccccc2)c2ccccc2)cc1 | -1
c1ccc([PH]([Au][CH2]c2ccc[c]([Au][PH](c3ccccc3)(c3ccccc3)c3ccccc3)c2)(c2ccccc2)c2ccccc2)cc1 | 1
c1ccc([PH]([Au][c]2cc[c]([Au][PH](c3ccccc3)(c3ccccc3)c3ccccc3)cc2)(c2ccccc2)c2ccccc2)cc1 | 1
c1ccc([PH]([Au][CH2]c2cc[c]([Au][PH](c3ccccc3)(c3ccccc3)c3ccccc3)cc2)(c2ccccc2)c2ccccc2)cc1 | -1
[Au][c]1ccc[c]([Au])c1.c1ccc(P(c2ccccc2)c2ccccc2)cc1.c1ccc(P(c2ccccc2)c2ccccc2)cc1 | 1

---

system: ccu24/cpr cell line; experiment: Growth inhibition assay (modified MTT); type: cell-based, human; conditions: Table 1, first series of assays, five-day MTT
pIC50: −log10 of the molar value.
Returns T if the recorded pIC50 is greater than or equal to 8, and F otherwise.

molecule | class_name
c1ccc([PH]([Au][c]2cc[c]([Au][PH](c3ccccc3)(c3ccccc3)c3ccccc3)cc2)(c2ccccc2)c2ccccc2)cc1 | T
c1ccc([PH]([Au][c]2cccc[c]2[Au][PH](c2ccccc2)(c2ccccc2)c2ccccc2)(c2ccccc2)c2ccccc2)cc1 | T
[Au][c]1ccc[c]([Au])c1.c1ccc(P(c2ccccc2)c2ccccc2)cc1.c1ccc(P(c2ccccc2)c2ccccc2)cc1 | T
N.N.[Cl][Pt][Cl] [Cisplatin, cisplatin, reference compound] | F
c1ccc([PH]([Au][CH2]c2ccc[c]([Au][PH](c3ccccc3)(c3ccccc3)c3ccccc3)c2)(c2ccccc2)c2ccccc2)cc1 | T

---

system: A2780carb cell line; experiment: Growth inhibition assay (modified MTT); type: cell-based, human; details: Table 1, first series of assays; A2780carb; five-day MTT
Entries and their IC50

compound | assay_system | units_symbol | IC50
c1ccc([PH]([Au][CH2]c2cc[c]([Au][PH](c3ccccc3)(c3ccccc3)c3ccccc3)cc2)(c2ccccc2)c2ccccc2)cc1 | A2780carb cell line | nM | 10.3
[Au][c]1ccc[c]([Au])c1.c1ccc(P(c2ccccc2)c2ccccc2)cc1.c1ccc(P(c2ccccc2)c2ccccc2)cc1 | A2780carb cell line | nM | 0.4
c1ccc([PH]([Au][CH2]c2cccc[c]2[Au][PH](c2ccccc2)(c2ccccc2)c2ccccc2)(c2ccccc2)c2ccccc2)cc1 | A2780carb cell line | nM | 7.3
N.N.[Cl][Pt][Cl] [Cisplatin, cisplatin, reference compound] | A2780carb cell line | nM | 27600
c1ccc([PH]([Au][c]2cc[c]([Au][PH](c3ccccc3)(c3ccccc3)c3ccccc3)cc2)(c2ccccc2)c2ccccc2)cc1 | A2780carb cell line | nM | 0.6
c1ccc([PH]([Au][c]2cccc[c]2[Au][PH](c2ccccc2)(c2ccccc2)c2ccccc2)(c2ccccc2)c2ccccc2)cc1 | A2780carb cell line | nM | 0.5
c1ccc([PH]([Au][CH2]c2ccc[c]([Au][PH](c3ccccc3)(c3ccccc3)c3ccccc3)c2)(c2ccccc2)c2ccccc2)cc1 | A2780carb cell line | nM | 0.6

---

Entries and their DNA crosslinking (Comet) ratio
System: cor123
Test: Comet assay, DNA crosslinking
Assay type: cell-based, human
Conditions: ratio >1 = more cross-linking in parental than in platinum-resistant line
Experimental: Preliminary studies have been carried out to investigate the mechanism underlying this increased sensitivity. These studies were carried out using the Comet assay (described in Appendix C), which measures damage to DNA. The results are shown in FIGS. 1 (cisplatinum), 2 (carboplatinum), 3 to 8 (compounds A-F) and 9 (phenylgoldtriphenylphospine, PAuP). […] DNA damage was measured by the single cell gel electrophoresis (SCGE) assay or “Comet assay”, originally developed by Ostling and Johnson^8. […]
measure: DNA crosslinking (Comet) ratio

compound | assay_system | measure | observed_value
c1ccc([PH]([Au][c]2cc[c]([Au][PH](c3ccccc3)(c3ccccc3)c3ccccc3)cc2)(c2ccccc2)c2ccccc2)cc1 [A] | cor123 | DNA crosslinking (Comet) ratio | 0.56
c1ccc([PH]([Au][c]2cccc[c]2[Au][PH](c2ccccc2)(c2ccccc2)c2ccccc2)(c2ccccc2)c2ccccc2)cc1 [Compound C] | cor123 | DNA crosslinking (Comet) ratio | 0.38
[Au][c]1ccc[c]([Au])c1.c1ccc(P(c2ccccc2)c2ccccc2)cc1.c1ccc(P(c2ccccc2)c2ccccc2)cc1 [B] | cor123 | DNA crosslinking (Comet) ratio | 0.38
c1ccc([PH]([Au][CH2]c2cccc[c]2[Au][PH](c2ccccc2)(c2ccccc2)c2ccccc2)(c2ccccc2)c2ccccc2)cc1 [F] | cor123 | DNA crosslinking (Comet) ratio | 0.62

---

tested on: mcp1 cell line; assay: Growth inhibition assay (modified MTT); assay type: cell-based, human; conditions: Table 1, first series of assays; mcp1; five-day MTT
Entries and their IC50
measure: IC50 (nM)

molecule | assay_system | observed_value
c1ccc([PH]([Au][CH2]c2cc[c]([Au][PH](c3ccccc3)(c3ccccc3)c3ccccc3)cc2)(c2ccccc2)c2ccccc2)cc1 [D] | mcp1 cell line | 8.4
[Au][c]1ccc[c]([Au])c1.c1ccc(P(c2ccccc2)c2ccccc2)cc1.c1ccc(P(c2ccccc2)c2ccccc2)cc1 [B] | mcp1 cell line | 0.4
N.N.[Cl][Pt][Cl] [Cisplatin, cisplatin, reference compound] | mcp1 cell line | 19900
c1ccc([PH]([Au][CH2]c2ccc[c]([Au][PH](c3ccccc3)(c3ccccc3)c3ccccc3)c2)(c2ccccc2)c2ccccc2)cc1 [E] | mcp1 cell line | 0.9
c1ccc([PH]([Au][CH2]c2cccc[c]2[Au][PH](c2ccccc2)(c2ccccc2)c2ccccc2)(c2ccccc2)c2ccccc2)cc1 [F] | mcp1 cell line | 6.3
c1ccc([PH]([Au][c]2cccc[c]2[Au][PH](c2ccccc2)(c2ccccc2)c2ccccc2)(c2ccccc2)c2ccccc2)cc1 [Compound C] | mcp1 cell line | 0.5
c1ccc([PH]([Au][c]2cc[c]([Au][PH](c3ccccc3)(c3ccccc3)c3ccccc3)cc2)(c2ccccc2)c2ccccc2)cc1 [A] | mcp1 cell line | 0.5

---

Entries and their DNA crosslinking (Comet) ratio
tested on: ccu24; test: Comet assay, DNA crosslinking; type: cell-based, human; settings: ratio >1 = more cross-linking in parental than in platinum-resistant line

compound | DNA crosslinking (Comet) ratio
c1ccc([PH]([Au][c]2cc[c]([Au][PH](c3ccccc3)(c3ccccc3)c3ccccc3)cc2)(c2ccccc2)c2ccccc2)cc1 | 0.40
[Au+].[c-]1ccccc1.c1ccc([PH+](c2ccccc2)c2ccccc2)cc1 [PAuP, phenylgoldtriphenylphospine, reference compound] | 1.00
N.N.[Cl][Pt][Cl] [Cisplatin, cisplatin, reference compound] | 4.65
c1ccc([PH]([Au][c]2cccc[c]2[Au][PH](c2ccccc2)(c2ccccc2)c2ccccc2)(c2ccccc2)c2ccccc2)cc1 | 0.37
c1ccc([PH]([Au][CH2]c2ccc[c]([Au][PH](c3ccccc3)(c3ccccc3)c3ccccc3)c2)(c2ccccc2)c2ccccc2)cc1 | 0.46
c1ccc([PH]([Au][CH2]c2cc[c]([Au][PH](c3ccccc3)(c3ccccc3)c3ccccc3)cc2)(c2ccccc2)c2ccccc2)cc1 | 0.47
c1ccc([PH]([Au][CH2]c2cccc[c]2[Au][PH](c2ccccc2)(c2ccccc2)c2ccccc2)(c2ccccc2)c2ccccc2)cc1 | 0.60
[Au][c]1ccc[c]([Au])c1.c1ccc(P(c2ccccc2)c2ccccc2)cc1.c1ccc(P(c2ccccc2)c2ccccc2)cc1 | 0.39
